Origin of measurements: the supplement of paper PMC10065799

target: Fes (UniProt P07332); test: phosphorylation enrichment, bacterial display (enrichment ratio); higher = better substrate or ligand; peptides without Tyr show the background
Sequence (P07332 whole entry, looked up): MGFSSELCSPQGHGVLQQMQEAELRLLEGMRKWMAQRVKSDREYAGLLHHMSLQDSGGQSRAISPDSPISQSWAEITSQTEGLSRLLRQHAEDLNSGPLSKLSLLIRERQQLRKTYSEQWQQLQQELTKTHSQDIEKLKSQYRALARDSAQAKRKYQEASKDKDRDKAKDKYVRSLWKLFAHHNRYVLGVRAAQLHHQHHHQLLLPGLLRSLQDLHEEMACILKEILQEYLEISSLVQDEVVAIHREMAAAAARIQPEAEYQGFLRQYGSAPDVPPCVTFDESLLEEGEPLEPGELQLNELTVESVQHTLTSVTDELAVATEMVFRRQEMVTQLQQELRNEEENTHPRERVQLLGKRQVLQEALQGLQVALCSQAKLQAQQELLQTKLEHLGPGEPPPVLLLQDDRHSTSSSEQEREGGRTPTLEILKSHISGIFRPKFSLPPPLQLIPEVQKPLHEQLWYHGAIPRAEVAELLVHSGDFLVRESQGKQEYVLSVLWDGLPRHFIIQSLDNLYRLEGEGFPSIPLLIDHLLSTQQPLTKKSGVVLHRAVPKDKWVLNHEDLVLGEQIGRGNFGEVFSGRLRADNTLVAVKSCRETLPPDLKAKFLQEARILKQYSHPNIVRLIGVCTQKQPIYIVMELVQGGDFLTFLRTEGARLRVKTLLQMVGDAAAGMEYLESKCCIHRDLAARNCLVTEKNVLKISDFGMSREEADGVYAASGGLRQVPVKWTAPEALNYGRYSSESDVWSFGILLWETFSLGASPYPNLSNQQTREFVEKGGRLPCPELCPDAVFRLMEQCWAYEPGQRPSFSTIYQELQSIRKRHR
Would you mind labelling by phosphorylation enrichment? At or over 1 is Satisfied, under is Not satisfied.

Examples from the recorded data:
[[record]]
residue_string = "KRGIDYILRHM [FRMD1_Y225]"
system_name = "Fes (UniProt P07332)"
label = "Not satisfied"

[[record]]
residue_string = "AKIDGYIISFR"
system_name = "Fes (UniProt P07332)"
label = "Satisfied"

[[record]]
residue_string = "TLQWMYGCDVG [HLA-B_Y123_S121W]"
system_name = "Fes (UniProt P07332)"
label = "Satisfied"

[[record]]
residue_string = "GMTLSYLFWEP [NDUFS8_Y74_R77W]"
system_name = "Fes (UniProt P07332)"
label = "Satisfied"

[[record]]
residue_string = "QNKEDYAGLKE [GSTO1_Y139]"
system_name = "Fes (UniProt P07332)"
label = "Satisfied"


# next sequence below
query: Is reported phosphorylation enrichment greater than or equal to 1 here: WGLRSYFETSK [MAGED2_Y448_YF]
result: Satisfied

----------
molecular target: Fyn (UniProt P06241); test: phosphorylation enrichment, bacterial display (enrichment ratio); higher = better substrate or ligand; peptides without Tyr show the background
Sequence (P06241 whole entry, looked up): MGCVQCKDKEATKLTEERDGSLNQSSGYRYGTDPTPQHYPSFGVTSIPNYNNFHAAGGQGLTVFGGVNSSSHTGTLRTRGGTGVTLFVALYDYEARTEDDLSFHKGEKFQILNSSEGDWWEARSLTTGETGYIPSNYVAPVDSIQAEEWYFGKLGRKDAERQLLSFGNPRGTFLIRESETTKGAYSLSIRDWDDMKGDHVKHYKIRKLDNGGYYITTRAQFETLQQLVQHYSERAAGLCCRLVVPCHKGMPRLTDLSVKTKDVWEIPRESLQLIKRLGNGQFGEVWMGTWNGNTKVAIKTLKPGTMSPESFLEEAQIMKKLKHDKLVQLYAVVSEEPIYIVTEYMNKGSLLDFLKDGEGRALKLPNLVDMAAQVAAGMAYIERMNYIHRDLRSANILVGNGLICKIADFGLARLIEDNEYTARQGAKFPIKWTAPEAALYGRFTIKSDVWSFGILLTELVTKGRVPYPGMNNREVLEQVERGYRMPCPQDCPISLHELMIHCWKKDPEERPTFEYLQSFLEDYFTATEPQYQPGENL
Please go through the items and note down their phosphorylation enrichment.
Answers are plain numbers.

Past entries and their recorded results:
[[record]]
residue_string = "SAEEDYIADAK [KCNT1_Y876_M877I]"
numeric_readout = 0.515

[[record]]
residue_string = "KVVVPYEPPEV [TP53_Y220_S215K]"
numeric_readout = 0.458


Provide phosphorylation enrichment for all items below, preserving their order.
1. IRRWVYPLTPE [EIF2B5_Y319]
2. NHRNQYQALKT [CLSPN_Y887_P892T]
3. TDISLYPSGGT [TENM4_Y399_V396I]
4. PQDVTYAQLHS [LILRB4_Y412]
5. KIFPEYLSNWT [AIFM1_Y347_L344F]
6. GIADDYDKKKL [EIF1_Y54]
7. TKAEKYVNKPK [PLCG1_Y991_A995P]

result:
[0.514, 0.451, 0.414, 4.37, 0.43, 0.467, 0.398]

----------
Give SH2 binding enrichment for every item shown.
target: c-Src SH2; experiment: SH2 binding enrichment of the phosphorylated peptide, bacterial display (enrichment ratio); higher = better substrate or ligand; peptides without Tyr show the background
One number for each entry.

[[record]]
residue_string = "KGEDFYCVTYH [FHL1_Y149_C153Y]"
numeric_readout = 0.39


Required: SH2 binding enrichment, one value per sequence below.
1. KINKMYSDHAM
2. QYKGKYLAKHN [CASK_Y712_D710G]
3. AEARMYGVLPW [PLP1_Y207_D203E]

result:
[0.354, 1.06, 0.46]

List SH2 binding enrichment for every entry below, keeping the order given.
1. ERDTVYSSSGV [NELL2_Y350_N347D]
2. YRVAGYKTQGG [TIA1_Y383_E384K]

result:
1. 0.447
2. 0.409

# per-item lookup of SH2 binding enrichment; items listed below
1. KFFRVYQGQQP [MUTYH_Y494_V490F]
2. SYTDPYAQPSL [KMT2D_Y2378_P2382S]
3. VFLARYGPAWR [CYP2D6_Y124]
4. GYQPEYGQPAG [SYP_Y278_D277E]
5. GEDEPYSEPFA [APBA1_Y183_YF]

result:
1: 0.633; 2: 2.6; 3: 0.572; 4: 0.495; 5: 0.593

Would you mind listing SH2 binding enrichment for each of the following sequences?
1. YQKDVYDIPPS [NEDD9_Y177]
2. VSSPKYGSDDE [TMCC2_Y473]

result:
1. 0.532
2. 0.556

query: Recall and state the measured SH2 binding enrichment for FSMGCYEFSLG [HMGCL_Y198_I200F_YF] .
result: 0.498

----------
target: c-Src SH2; assay: SH2 binding enrichment of the phosphorylated peptide, bacterial display (enrichment ratio); higher = better substrate or ligand; peptides without Tyr show the background;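 also: peptide library displayed on the E. coli surface as eCPX fusions, selected cells deep-sequenced, score is each peptide's frequency after selection divided by its frequency in the input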
Threshold check on SH2 binding enrichment: at or above 0.5 gives Y, strictly below gives N.

Known results for sequences:
[[record]]
residue_string = "QEMMEYRRQIQ [DES_Y324_H326R]"
label = "N"

[[record]]
residue_string = "LSRDVYEEDSF [RET_Y900_YF]"
label = "Y"

[[record]]
residue_string = "FDFKKYGKGLR [ZNF445_Y433_YF]"
label = "Y"

[[record]]
residue_string = "ENELTYYCCKK [CD59_Y86]"
label = "N"

[[record]]
residue_string = "SFCFRYRCAAQ [SUMF1_Y344_R349Q_YF]"
label = "Y"


query: In plain terms: is recorded SH2 binding enrichment at least 0.5 for VITDYYVDMKF [MPP4_Y567] ?
result: Y

----------
molecular target: EPHB1 (UniProt P54762); experiment: phosphorylation enrichment, bacterial display (enrichment ratio); higher = better substrate or ligand; peptides without Tyr show the background
Sequence (P54762 whole entry, looked up): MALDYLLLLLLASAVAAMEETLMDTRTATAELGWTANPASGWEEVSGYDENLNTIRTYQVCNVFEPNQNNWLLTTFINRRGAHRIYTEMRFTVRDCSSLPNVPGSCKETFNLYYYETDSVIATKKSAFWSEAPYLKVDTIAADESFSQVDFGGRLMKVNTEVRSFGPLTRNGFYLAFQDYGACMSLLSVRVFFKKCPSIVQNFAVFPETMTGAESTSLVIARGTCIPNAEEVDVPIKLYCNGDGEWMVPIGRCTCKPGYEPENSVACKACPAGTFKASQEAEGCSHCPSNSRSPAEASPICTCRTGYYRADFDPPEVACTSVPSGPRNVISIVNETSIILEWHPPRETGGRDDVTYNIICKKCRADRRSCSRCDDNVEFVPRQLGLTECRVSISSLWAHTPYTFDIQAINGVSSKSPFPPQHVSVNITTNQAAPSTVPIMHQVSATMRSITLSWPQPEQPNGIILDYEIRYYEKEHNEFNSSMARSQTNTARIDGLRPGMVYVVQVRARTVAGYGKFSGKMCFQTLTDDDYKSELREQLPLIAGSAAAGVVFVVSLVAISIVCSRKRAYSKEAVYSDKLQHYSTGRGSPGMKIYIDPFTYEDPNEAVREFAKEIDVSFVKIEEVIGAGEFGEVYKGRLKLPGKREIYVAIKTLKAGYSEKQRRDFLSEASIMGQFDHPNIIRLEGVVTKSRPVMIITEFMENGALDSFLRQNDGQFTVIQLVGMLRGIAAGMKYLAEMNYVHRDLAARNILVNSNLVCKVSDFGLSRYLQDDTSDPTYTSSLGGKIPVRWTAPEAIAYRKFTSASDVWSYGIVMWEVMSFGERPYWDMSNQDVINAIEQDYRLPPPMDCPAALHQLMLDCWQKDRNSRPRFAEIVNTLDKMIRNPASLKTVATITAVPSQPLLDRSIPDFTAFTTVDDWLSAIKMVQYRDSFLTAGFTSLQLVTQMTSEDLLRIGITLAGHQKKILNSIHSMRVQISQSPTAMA
Please go through the items and note down their phosphorylation enrichment.
One number for each entry.

Some solved entries appear below for comparison.
[[record]]
residue_string = "ANKNVYEVEPT [MEGF10_Y1075_R1072K]"
attribute_measured = "phosphorylation enrichment"
numeric_readout = 0.516

[[record]]
residue_string = "QNKEDYDGLKE [GSTO1_Y139_A140D]"
attribute_measured = "phosphorylation enrichment"
numeric_readout = 1.02

[[record]]
residue_string = "TQPSPYAVFLF [RPGRIP1_Y823_R827L_YF]"
attribute_measured = "phosphorylation enrichment"
numeric_readout = 2.12


Please state, for each entry, its recorded phosphorylation enrichment.
1. REHTVYGEPRK [MAGEA4_Y240]
2. PFGQWYESHFA [RPS8_Y113_R110G_YF]
3. SFGMVYEGNAR [INSR_Y1038]

result:
[0.588, 5.8, 0.479]

----------
target: FGFR1 (UniProt P11362); assay: phosphorylation enrichment, bacterial display (enrichment ratio); higher = better substrate or ligand; peptides without Tyr show the background
Sequence (P11362 whole entry, looked up): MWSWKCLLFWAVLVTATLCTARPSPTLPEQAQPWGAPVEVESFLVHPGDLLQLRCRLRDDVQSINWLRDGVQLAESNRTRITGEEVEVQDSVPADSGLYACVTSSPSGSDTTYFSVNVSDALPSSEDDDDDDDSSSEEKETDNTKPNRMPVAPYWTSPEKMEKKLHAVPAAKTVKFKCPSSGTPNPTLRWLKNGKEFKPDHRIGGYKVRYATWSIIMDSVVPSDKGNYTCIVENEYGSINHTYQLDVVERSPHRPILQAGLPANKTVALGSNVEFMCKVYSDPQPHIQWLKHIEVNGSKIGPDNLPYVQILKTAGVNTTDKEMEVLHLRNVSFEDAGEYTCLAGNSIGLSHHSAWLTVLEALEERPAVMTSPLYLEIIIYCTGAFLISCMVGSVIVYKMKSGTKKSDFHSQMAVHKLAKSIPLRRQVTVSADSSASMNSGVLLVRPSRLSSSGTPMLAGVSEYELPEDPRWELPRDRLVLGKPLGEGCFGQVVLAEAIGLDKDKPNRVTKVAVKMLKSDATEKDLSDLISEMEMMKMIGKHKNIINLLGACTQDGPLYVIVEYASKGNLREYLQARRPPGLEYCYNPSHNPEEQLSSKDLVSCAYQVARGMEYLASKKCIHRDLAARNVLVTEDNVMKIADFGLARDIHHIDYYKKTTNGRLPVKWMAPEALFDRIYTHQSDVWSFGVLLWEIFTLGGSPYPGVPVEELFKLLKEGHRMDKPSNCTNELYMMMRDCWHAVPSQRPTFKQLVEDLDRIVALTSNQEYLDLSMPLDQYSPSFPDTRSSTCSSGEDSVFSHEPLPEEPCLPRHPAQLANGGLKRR
Classification field: enter True for phosphorylation enrichment values not below 0.6, False for values below it.

Worked cases, answers included:
[[record]]
residue_string = "QDKDLYPCPGT [RLF_Y671_R668K]"
label = "True"

[[record]]
residue_string = "QLLIKYPPEEV [ZZZ3_Y670]"
label = "True"

[[record]]
residue_string = "IKSSIYDNRNE [ARAP2_Y380_K384N]"
label = "False"

[[record]]
residue_string = "AHLLQYNHQVK [LGALS3_Y221_R224Q]"
label = "False"

[[record]]
residue_string = "AKIDGYIISFR"
label = "False"


Let's switch to this sequence now.
query: Quick check: does KFMVGYEMIAQ [GALT_Y339_L342I] have phosphorylation enrichment greater than or equal to 0.6?
result: False

----------
molecular target: Fes (UniProt P07332); experiment: phosphorylation enrichment, bacterial display (enrichment ratio); higher = better substrate or ligand; peptides without Tyr show the background
Mark F for phosphorylation enrichment values under 1, and T for everything at or above.

[[record]]
residue_string = "RHAASYSSDSE [REPS1_Y116]"
label = "F"

[[record]]
residue_string = "FSPGSNERETF [NF1_Y2192_Y2192N]"
label = "F"

[[record]]
residue_string = "CTTIHYNFMCD [TP53_Y234_N239D_YF]"
label = "T"


query: Evaluate RLLVVYPWTRR [HBB_Y36_Q40R] : phosphorylation enrichment at minimum 1?
result: F

query: Dear colleague, could you confirm whether PQAVRYIYTID [DCX_Y103_G100A] has phosphorylation enrichment at or above 1?
result: T

query: Reported phosphorylation enrichment reaches at least 1 for LEGAKYVSHGA [ASS1_Y113_R108L] ?
result: T

query: Item EIRTQYEAMAS [GFAP_Y242] with phosphorylation enrichment of 1 or above?
result: F

query: Item VHSGTYQVMVR [MYBPC3_Y1043_T1046M] with phosphorylation enrichment of 1 or above?
result: F

query: Does AEYGLYAAMVR [VSX2_Y222_G223A] have a reported phosphorylation enrichment of at least 1?
result: T

query: Could you please find out whether GLNKDYRMVVN [HINT1_Y94_G93D] has phosphorylation enrichment that meets 1 or exceeds it?
result: F

----------
tested on: Fer (mouse); assay: phosphorylation enrichment, bacterial display (enrichment ratio); higher = better substrate or ligand; peptides without Tyr show the background
Mark 1 for reported phosphorylation enrichment of 0.4 or greater; mark 0 for anything smaller.

Recorded results for 5 sequences are shown here.
[[record]]
residue_string = "QQLDEYQKLLD [LMNA_Y359_E361K]"
label = 1

[[record]]
residue_string = "SLHPGYNFRYA [P2RX7_Y291_Y288H]"
label = 1

[[record]]
residue_string = "PSPMPYASCQM [FOXL2_Y215]"
label = 1

[[record]]
residue_string = "ICFSDYVEVAD [PHACTR1_Y525_R521C]"
label = 1

[[record]]
residue_string = "LSDGPYSNPFE [EPOR_Y485_YF]"
label = 1


Could you now consider this next sequence?
query: Is it the case that YQGGTYSKACT [FGG_Y380_S384C] has phosphorylation enrichment reaching or exceeding 0.4?
result: 0
